Data origin, for the record: the supplement of paper PMC9112550

- Tested on: Escherichia coli TOP10;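 further: peptides expressed intracellularly from a pBAD plasmid library in pooled LB shake-flask culture, induced with 0.3% L-arabinose, DNA abundance read by NGS, three biological replicates, DESeq2 with apeglm shrinkage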
- Protocol Notes: shrunken log2 fold change of peptide-encoding DNA abundance (4.5 h post-induction vs induction); higher = less antimicrobial activity (less host growth inhibition)
- Details: time post-induction: 4.5 h; library: site-saturation at positions 5, 18, 19, 20
Value Type: shrunken log2 fold change

>>> endpoint_value("RRIRCRPPRLPRPRPRPMLLPRP")
0.00507
>>> endpoint_value("RRIRNRPPRLPRPRPRPAELPRP")
-0.0198
>>> endpoint_value("RRIRSRPPRLPRPRPRPMNFPRP")
-0.0407
>>> endpoint_value("RRIRWRPPRLPRPRPRPGMMPRP")
0.113
>>> endpoint_value("RRIRSRPPRLPRPRPRPNQNPRP")
-0.274
>>> endpoint_value("RRIRRRPPRLPRPRPRPGQNPRP")
0.203
>>> endpoint_value("RRIRPRPPRLPRPRPRPADPPRP")
0.558
>>> endpoint_value("RRIRERPPRLPRPRPRPCHAPRP")
-0.301
>>> endpoint_value("RRIRRRPPRLPRPRPRPVETPRP")
0.181
>>> endpoint_value("RRIRGRPPRLPRPRPRPGTGPRP")
0.84
>>> endpoint_value("RRIRFRPPRLPRPRPRPNDDPRP")
-0.755
>>> endpoint_value("RRIRQRPPRLPRPRPRPMWIPRP")
-0.146
>>> endpoint_value("RRIRCRPPRLPRPRPRPMLHPRP")
-0.378
>>> endpoint_value("RRIRHRPPRLPRPRPRPSTRPRP")
0.0896
>>> endpoint_value("RRIRFRPPRLPRPRPRPKANPRP")
0.00613
